Biological target: T1, recombinant hIL-6R protein, monomeric form (human, UniProt P08887 20-358)
T1 construct: also called monomeric hIL-6R; Human IL6R
T1 sequence: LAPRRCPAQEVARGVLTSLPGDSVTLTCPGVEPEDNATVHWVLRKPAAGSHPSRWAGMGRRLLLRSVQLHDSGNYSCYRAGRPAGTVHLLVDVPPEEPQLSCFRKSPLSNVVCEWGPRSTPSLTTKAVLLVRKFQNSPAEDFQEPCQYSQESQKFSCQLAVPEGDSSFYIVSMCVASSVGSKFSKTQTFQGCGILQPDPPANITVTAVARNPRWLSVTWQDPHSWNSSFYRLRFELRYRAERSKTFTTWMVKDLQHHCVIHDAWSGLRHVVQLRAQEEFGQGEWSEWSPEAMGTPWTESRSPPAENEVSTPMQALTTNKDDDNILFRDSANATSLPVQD
Test: SPR (BIAcore), antibody captured on goat anti-mouse Fc, monomeric IL-6R 1.25-40 nM injected

binder | koff (s⁻¹)
VV6A9-5 (antibody, V domains shown, Human variable regions with mouse constant region; also called VV6A9-5 mIgG2a) VH: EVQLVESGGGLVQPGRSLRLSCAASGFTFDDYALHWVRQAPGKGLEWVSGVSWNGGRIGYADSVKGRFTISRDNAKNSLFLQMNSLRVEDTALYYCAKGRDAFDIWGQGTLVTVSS VL: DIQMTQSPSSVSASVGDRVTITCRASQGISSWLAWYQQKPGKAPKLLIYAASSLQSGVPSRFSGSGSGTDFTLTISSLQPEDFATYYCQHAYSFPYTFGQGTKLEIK | 8.41e-05
VQ8A9-6 (antibody, V domains shown, Human variable regions with mouse constant region (hybridoma-derived chimeric antibody); also called VQ8A9-6 mIgG1) VH: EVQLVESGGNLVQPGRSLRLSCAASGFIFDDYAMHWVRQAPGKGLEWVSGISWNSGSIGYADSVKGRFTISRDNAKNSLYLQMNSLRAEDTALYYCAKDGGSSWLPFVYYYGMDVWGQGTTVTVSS VL: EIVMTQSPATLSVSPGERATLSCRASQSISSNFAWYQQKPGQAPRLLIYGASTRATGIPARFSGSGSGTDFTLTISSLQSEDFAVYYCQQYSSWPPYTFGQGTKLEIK | 0.000276
VV1G4-7 (antibody, IgG2a, V domains shown, Human variable regions with mouse constant region) VH: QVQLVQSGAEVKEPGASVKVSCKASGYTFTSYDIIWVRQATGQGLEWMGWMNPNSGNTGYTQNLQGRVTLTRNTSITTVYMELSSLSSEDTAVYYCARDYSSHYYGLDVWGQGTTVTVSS VL: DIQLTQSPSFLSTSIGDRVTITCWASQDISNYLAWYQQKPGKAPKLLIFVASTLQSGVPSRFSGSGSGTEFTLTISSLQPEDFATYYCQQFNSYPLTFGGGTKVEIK | 6.18e-05
